# Test system: SF-539 CNS
# assay-summary: NCI tumour cell line growth inhibition, 48 h; in the data active means GI50 below about 0.43 µM; inactive means the rest
Give your call using only these classes: true for active, false for inactive

See these solved cases before continuing.
compound=OCCN(CO)CN(CN(CO)CCO)c1nc(N(CN(CO)CCO)CN(CO)CCO)nc(N(CN(CO)CCO)CN(CO)CCO)n1 system_tested="SF-539 CNS" class_label=false
compound="Cc1cccc2c3c(sc12)C(c1ccc(Cl)cc1)C(C#N)=C(/N=C/c1ccc(Cl)cc1)O3 (stereo unspecified)" system_tested="SF-539 CNS" class_label=true
compound=CC(=O)OCC(=O)[C@@]1(O)[C@H](C)C[C@H]2[C@@H]3C=C(C)C4=Cc5c(cnn5-c5ccc(F)cc5)C[C@]4(C)[C@H]3[C@@H](O)C[C@@]21C system_tested="SF-539 CNS" class_label=false

Assay result, entry COc1cc2c(cc1OCCCCCOc1cc(-c3ccc(F)cc3)nc(C)n1)N=C[C@@H]1CCCN1C2=O — outcome?
false

For this compound, state the assay outcome: CCCCCC(=O)N1c2ccccc2NC2=C(C(=O)CC(c3ccc(OC)c(OC)c3)C2)C1c1ccc(C(F)(F)F)cc1 (stereo unspecified)
false

# fetch the recorded call for COc1ccc(-c2ccc(/C=N/n3cn[nH]c3=S)o2)c([N+](=O)[O-])c1 here
false

====

# Test system: CAKI-1 renal
# assay-summary: NCI tumour cell line growth inhibition, 48 h
value-type: TGI

Look over these answered cases.
compound=COc1cc2c(cc1OCCCCCOc1cc(-c3ccc(F)cc3)nc(C)n1)N=C[C@@H]1CCCN1C2=O system_tested="CAKI-1 renal" reading="> 66.9 µM"
compound="CC1C2CC(C(C3C(=O)C4CC3C(C)(C)C4C)C2=O)C1(C)C (stereo not given)" system_tested="CAKI-1 renal" reading="> 100 µM"
compound=Clc1nc(Cl)c2ncn(C/C=C\Cn3cnc4c(Cl)nc(Cl)nc43)c2n1 system_tested="CAKI-1 renal" reading="2.41 µM"
compound=Cn1cnc2c(F)c(Nc3ccc(Br)cc3Cl)c(C(=O)NOCCO)cc21 system_tested="CAKI-1 renal" reading="> 100 µM"
compound="COc1c(O)cc(/C=C/c2cc(O)cc3c2[C@@]2(C(=O)O3)c3c(O)cc(O)cc3OC2c2cccc(O)c2)cc1O (stereo not given in full)" system_tested="CAKI-1 renal" reading="> 100 µM"

Recorded TGI of CC(=O)NNC=N/C(C#N)=C(\N)C#N , please.
> 100 µM

Would you mind telling me what TGI value was observed for [N-]=[N+]=Nc1ncc(-c2ccc(C(F)(F)F)cc2)c(NC2CCCCCC2)n1 ?
> 10 µM

Request the reported TGI associated with O=C1/C(=C/c2cccc([N+](=O)[O-])c2)CCCc2ccccc21
30.1 µM

Fill blank: measured TGI of the compound Cc1c(C(=O)/C=C/c2ccc(O)cc2)nnn1-c1ccnc2c(C(F)(F)F)cccc12 is ____.
> 100 µM

====

# Test system: CCRF-CEM leukemia
# assay-summary: NCI tumour cell line growth inhibition, 48 h
value-type: TGI

Below: 4 compounds and their reported TGI.
compound=CSc1nc(=S)[nH]c2n[nH]c(C)c12 system_tested="CCRF-CEM leukemia" reading="> 100 µM"
compound=CC[C@@]1(O)C(=O)NCc2c1cc1n(c2=O)Cc2cc3cc4c(cc3nc2-1)OCO4 system_tested="CCRF-CEM leukemia" reading="0.148 µM"
compound="CC1CCCc2c(-c3ccc(Cl)cc3)nc(N)c(C#N)c21 (stereo unspecified)" system_tested="CCRF-CEM leukemia" reading="> 100 µM"
compound=CN(C)c1cccc2[nH]c(-c3[nH]ncc3Nc3ccnc(N)n3)nc12 system_tested="CCRF-CEM leukemia" reading="4.48 µM"

For the record CN(CCO)CC(=O)CC(O)(C(F)(F)F)C(F)(F)F , what value of TGI is listed for CCRF-CEM leukemia?
91.9 µM

What is its TGI for CCRF-CEM leukemia? Entry: Cn1c(=O)nc2n(CCO)c(-c3ccccc3)c(-c3ccccc3)nc-2c1=O
> 100 µM

Given the entry Nc1ncc2c(n1)-c1ccccc1OC2NC1CC1 (stereo unspecified) , what TGI was observed with CCRF-CEM leukemia?
> 100 µM

What reported TGI corresponds to CC(=O)OC1[C@H]2c3cc4c(cc3CN3CCC(C[C@@H]1OC(C)=O)C23)OCO4 (stereo partly specified) on CCRF-CEM leukemia?
> 75 µM

# returns recorded TGI (system: CCRF-CEM leukemia) for CC(=O)NNC=N/C(C#N)=C(\N)C#N
> 100 µM

Which measured TGI belongs to CCOC(=O)C1CCC/C1=N\N=C(N)N (stereo unspecified) (tested in a mixture with another compound) , tested on CCRF-CEM leukemia?
> 100 µM

Request: TGI, test system CCRF-CEM leukemia, entry C/C(=N\NC(N)=S)c1ccc(/C(C)=N/NC(N)=S)cc1
> 100 µM
